Entries annotated with measured selectivity ratio
- protocol: In vitro therapeutic index value is the ratio between IC50 values of [J] and [P]
- Assay type: cell-based
- measurementSetup: human, Jurkat cells; read-out: TI
Just the number, please, no unit after it.

Recorded results for 5 compounds are shown here.
CS(=O)(=O)Nc1ccc(Nc2c3ccc(N)cc3nc3cc(N)ccc23)cc1 33
CNc1ccc(Nc2c3ccccc3nc3cc(N)ccc23)cc1 1.6
CN(C)Cc1ccc(Nc2c3ccccc3nc3cc(N)ccc23)cc1 10
Nc1ccc(Nc2c3ccccc3nc3cc(N)ccc23)cc1 7.5
CN(C)c1ccc2c(Nc3ccccc3)c3ccc(N(C)C)cc3nc2c1 0.6

Please find the next compound below.
Entry `CNc1ccc(Nc2c3ccccc3nc3ccccc23)cc1` has what selectivity ratio?
3.8

###

# log10 of IC50 listing for each entry below
- System: Plasmodium falciparum
- protocol: Inhibitory concentration against Plasmodium falciparum D6 infected erythrocytes
- Assay type: functional, organism-based
# values: log10(IC50), units nM

compound	log10 of IC50
C=C[C@H]1CN2CC[C@H]1C[C@H]2[C@H](O)c1ccnc2ccc(OC)cc12	1.68
Nc1ccc(Nc2c3ccc(N)cc3nc3cc(N)ccc23)cc1	1.52
CN(C)c1ccc(Nc2c3ccc(N)cc3nc3cc(N)ccc23)cc1	1.80

Please give the measured log10 of IC50 for this compound: OC(c1cc(C(F)(F)F)nc2c(C(F)(F)F)cccc12)C1CCCCN1 (configuration not stated)
1.23

Another compound to check: `C[C@@H]1CC[C@H]2[C@@H](C)C(=O)O[C@@H]3O[C@@]4(C)CC[C@@H]1[C@]32OO4`
1.11

Same again, this time with `COc1ccc2nc3cc(Cl)ccc3c(Nc3cc(CN4CCCC4)c(O)c(CN4CCCC4)c3)c2n1`
0.00

What about `CN(C)Cc1ccc(Nc2c3ccc(N)cc3nc3cc(N)ccc23)cc1` ?
2.05

###

- Test system: Plasmodium falciparum
- protocol: Inhibitory concentration IC50 against Plasmodium falciparum K1 by [3H]hypoxanthine uptake over 24 hr
- Type: functional, organism-based
readout: IC50 (nM)
Field: numeric (nM). Do not append units.

Worked set:
Nc1ccc(Nc2c3ccccc3nc3cc(N)ccc23)cc1 100
Nc1ccc2c(Nc3ccccc3)c3ccc(N)cc3nc2c1 300
Nc1ccc2c(Nc3ccc(S(=O)(=O)N4CCCCC4)cc3)c3ccc(N)cc3nc2c1 1400
[N-]=[N+]=Nc1ccc2c(Nc3ccc(S(N)(=O)=O)cc3)c3ccc(N=[N+]=[N-])cc3nc2c1 30
COc1cc(NS(C)(=O)=O)ccc1Nc1c2ccc(N(C)C)cc2nc2cc(N(C)C)ccc12 400

# next compound below
Returns the measured IC50 for the input compound. Input: `CNc1ccc(Nc2c3ccc(N)cc3nc3cc(N)ccc23)cc1`
160

###

- System: Plasmodium falciparum
- protocol: Inhibitory concentration against Plasmodium falciparum W2 infected erythrocytes
- Assay type: functional, organism-based
Reported values of pIC50 for individual entries
For clarity, pIC50 is expressed as the negative log10 of concentration in mol/L.

compound	readout	assayResult
Nc1ccc(Nc2c3ccc(N)cc3nc3cc(N)ccc23)cc1	pIC50	7.43
CN(C)Cc1ccc(Nc2c3ccc(N)cc3nc3cc(N)ccc23)cc1	pIC50	6.56
C[C@@H]1CC[C@H]2[C@@H](C)C(=O)O[C@@H]3O[C@@]4(C)CC[C@@H]1[C@]32OO4 [ARTEMISININ]	pIC50	7.92
CN(C)c1ccc(Nc2c3ccc(N)cc3nc3cc(N)ccc23)cc1	pIC50	6.93
C=C[C@H]1CN2CC[C@H]1C[C@H]2[C@H](O)c1ccnc2ccc(OC)cc12 [QUININE]	pIC50	7.00

Turning now to a further compound:
Please report the recorded pIC50 for COc1ccc2nc3cc(Cl)ccc3c(Nc3cc(CN4CCCC4)c(O)c(CN4CCCC4)c3)c2n1 [PYRONARIDINE] .
9.10
